The entries below come with measured total protein half-life in vivo values attached.
assay: total protein half-life in vivo (active degradation + dilution); higher = more stable protein; settings: wild type E. coli NCM3722; growth: C-lim chemostat; doubling time 3 h
Give me the value, and tack the unit on after it.

MAHIVTLNTPSREDWLTQLADVVTDPDELLRLLNIDAEEKLLAGRSAKKLFALRVPRSFIDRMEKGNPDDPLLRQVLTSQDEFVIAPGFSTDPLEEQHSVVPGLLHKYHNRALLLVKGGCAVNCRYCFRRHFPYAENQGNKRNWQTALEYVAAHPELDEMIFSGGDPLMAKDHELDWLLTQLEAIPHIKRLRIHSRLPIVIPARITEALVECFARSTLQILLVNHINHANEVDETFRQAMAKLRRVGVTLLNQSVLLRDVNDNAQTLANLSNALFDAGVMPYYLHVLDKVQGAAHFMVSDDEARQIMRELLTLVSGYLVPKLAREIGGEPSKTPLDLQLRQQ = 1.41 h

q: State the recorded total protein half-life in vivo for this entry: MKSRAAVAFAPGKPLEIVEIDVAPPKKGEVLIKVTHTGVCHTDAFTLSGDDPEGVFPVVLGHEGAGVVVEVGEGVTSVKPGDHVIPLYTAECGECEFCRSGKTNLCVAVRETQGKGLMPDGTTRFSYNGQPLYHYMGCSTFSEYTVVAEVSLAKINPEANHEHVCLLGCGVTTGIGAVHNTAKVQPGDSVAVFGLGAIGLAVVQGARQAKAGRIIAIDTNPKKFDLARRFGATDCINPNDYDKPIKDVLLDINKWGIDHTFECIGNVNVMRAALESAHRGWGQSVIIGVAVAGQEISTRPFQLVTGRVWKGSAFGGVKGRSQLPGMVEDAMKGDIDLEPFVTHTMSLDEINDAFDLMHEGKSIRTVIRY
a: 2.68 h
